Data origin, for the record: patent US20210380703A1

- testedTarget: T1, Human ACVR2A (human, UniProt P27037 20-135, limits assumed); note: test concentration or dose not given here
- T1 construct: also called activin receptor, type II A
- T1 sequence (P27037 20-135 limits assumed): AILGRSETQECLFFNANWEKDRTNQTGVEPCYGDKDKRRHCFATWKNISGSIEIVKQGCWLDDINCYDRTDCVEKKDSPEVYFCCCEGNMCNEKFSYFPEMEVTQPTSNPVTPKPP
- procedureText: ELISA
endpoint: optical density (OD)
Field: numeric (OD). Do not append units.

[[record]]
binder = "372_D02 (antibody, V domains shown) VH: EVQLLESGGGLVQPGGSLRLSCAASGFTFSSYGMHWVRQAPGKGLEWVAGINYNGGYTGYADSVKGRFTISRDNSKNTLYLQMNSLRAEDTAVYYCARSANWHDTALDYWGQGTLVTVSS VL: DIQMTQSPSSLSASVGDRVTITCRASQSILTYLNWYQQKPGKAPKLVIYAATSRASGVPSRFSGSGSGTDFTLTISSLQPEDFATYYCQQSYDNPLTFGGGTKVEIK"
endpoint = "optical density"
scaleunit = "OD"
recordedmeasurement = 2.66


370_A12 (antibody, V domains shown) VH: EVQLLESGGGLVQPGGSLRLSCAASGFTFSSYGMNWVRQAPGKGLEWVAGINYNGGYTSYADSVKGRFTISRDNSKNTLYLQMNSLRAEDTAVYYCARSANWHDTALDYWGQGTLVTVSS VL: DIQMTQSPSSLSASVGDRVTITCRASQSILTYLNWYQQKPGKAPKLLIYAATSLASGVPSRFSGSGSGTDFTLTISSLQPEDFATYYCQQSYDSPLTFGGGTKVEIK has a reported optical density of 3.06
